- TESTED TARGET: T1, recombinant fibronectin domain ED-B (His)6 (human, UniProt P02751 1266-1356)
- T1 construct: domain: ED-B; Produced by standard procedures; immobilised on ELISA plates or on the BIAcore chip; also called recombinant ED-B; human ED-B
- MEASUREMENT DESCRIPTION: SPR (BIAcore), ED-B immobilised on chip, Fab in flow
Rule: koff of 0.04 s⁻¹ or more gives 1; anything lower gives 0.

Study these solved cases before continuing.
>>> class_assignment("MOR02622 (Fab, V domains shown, HuCAL GOLD Fab, VH3/L2) VH: QVQLVESGGGLVQPGGSLRLSCAASGFTFSNYAMTWVRQAPGKGLEWVSGISYKSSSTYYADSVKGRFTISRDNSKNTLYLQMNSLRAEDTAVYYCARGLVTFDNWGQGTLVTVSS VL: DIALTQPASVSGSPGQSITISCTGTSSDGGTYNFVSWYQQHPGKAPKLMIYRVSNRPSGVSNRFSGSKSGNTASLTISGLQAEDEADYYCSSWTHSFTDYVFGGGTKLTVLG")
0
>>> class_assignment("MOR02715 (Fab, V domains shown, HuCAL GOLD Fab, VH3/L2) VH: QVQLVESGGGLVQPGGSLRLSCAASGFTFSSYGMHWVRQAPGKGLEWVSVISSSGSYIYYADSVKGRFTISRDNSKNTLYLQMNSLRAEDTAVYYCARNKVGFDVWGQGTLVTVSS VL: DIALTQPASVSGSPGQSITISCTGTSSDGGGYNTVSWYQQHPGKAPKLMIYYVHKRPSGVSNRFSGSKSGNTASLTISGLQAEDEADYYCQAWDNQGMKYVFGGGTKLTVLG")
1
>>> class_assignment("MOR02614 (Fab, V domains shown, HuCAL GOLD Fab, VH3/L1) VH: QVQLVESGGGLVQPGGSLRLSCAASGFTFNNNWMHWVRQAPGKGLEWVSFISGSGSHTYYADSVKGRFTISRDNSKNTLYLQMNSLRAEDTAVYYCARAYDVWGQGTLVTVSS VL: DIVLTQPPSVSGAPGQRVTISCSGSSSNIGFNYVNWYQQLPGTAPKLLIYGNSKRPSGVPDRFSGSKSGTSASLAITGLQSEDEADYYCAMFSPEGVFGGGTKLTVLG")
1
>>> class_assignment("MOR02611 (Fab, V domains shown, HuCAL GOLD Fab, VH1B/L2) VH: QVQLVQSGAEVKKPGASVKVSCKASGYTFSGSYMHWVRQAPGQGLEWMGIINPASGKTLYAQKFQGRVTMTRDTSISTAYMELSSLRSEDTAVYYCARGLYYRFASWGQGTLVTVSS VL: DIALTQPASVSGSPGQSITISCTGTSSDIGGYHSVSWYQQHPGKAPKLMIYRSNRPSGVSNRFSGSKSGNTASLTISGLQAEDEADYYCAAATGGWVFGGGTNLTVLG")
1

Request: Given the entry MOR02616 (Fab, V domains shown, HuCAL GOLD Fab, VH3/K3) VH: QVQLVESGGGLVQPGGSLRLSCAASGFTFRNNAMHWVRQAPGKGLEWVSAISSSGSGTYYADSVKGRFTISRDNSKNTLYLQMNSLRAEDTAVYYCARVIVLFDYWGQGTLVTVSS VL: DIVLTQSPATLSLSPGERATLSCRASQNVRSNLAWYQQKPGQAPRLLIYGASNRATGVPARFSGSGSGTDFTLTISSLEPEDFAVYYCLQKYSIPFTFGQGTKVEIKR , answer whether its koff meets or surpasses 0.04 s⁻¹.
Response: 0
